assay-summary: melting temperature; fluorescence melt of hairpins on a sequencing array, two-state fit, raised by 9.35 °C to match UV melts
experimental-setup: sodium 0.088 M
Label yes (1) when Tm is at or above 50 °C; anything below gets no (0).

sequence-text: GGCGAGCGAAAGCTGGCC (((.(((....))).)))
group: yes (1)

sequence-text: CGCGGAACATTCCGCG ((((((....))))))
group: yes (1)

sequence-text: GTACACGAAAGTGTTTAC ((((((....)))..)))
group: no (0)

sequence-text: GACAGAGGAAACTCCGTC (((.(((....))).)))
group: no (0)
